system: OVCAR-8 ovarian; experiment: NCI tumour cell line growth inhibition, 48 h
parameter: TGI

- O=C(/C=C/c1ccc(C(F)(F)F)cc1)Nc1ccc(C=C2c3ccccc3C(=O)c3ccccc32)cc1: > 100 µM

**Query** Provide measured TGI on OVCAR-8 ovarian for O=CC(O)C(O)C(O)C1CNC(=S)O1 (stereo not drawn) please.
**Result** > 100 µM

**Query** For OVCAR-8 ovarian, give TGI of the listed molecule: CC(=O)OC1C2CCC3C(C)(O)C4CC(O)C(C)(C)C4(O)C(O)CC13CC2(C)O (stereo not drawn)
**Result** > 100 µM

---

test system: HCT-15 colon; test: NCI tumour cell line growth inhibition, 48 h
Below, each of the compounds is paired with its reported TGI value.

- CCCC1C(=O)Nc2cccc3ncn(c23)C1=O (stereo not drawn): > 100 µM
- COC(=O)CC(C(C(=O)OCc1ccccc1)C(C)O)N1C(=O)OC(c2ccccc2)C1c1ccccc1 (stereo not drawn): > 100 µM

**Query** Output reported TGI of the compound `Cc1c(OCc2ccccc2)c(=O)ccn1CCc1c[nH]c2ccccc12` on HCT-15 colon.
**Result** > 100 µM
